Values were extracted from PubChem BioAssay (NCATS).

Test: Viability qHTS for spleen associated tyrosine kinase inhibitor (SYKi) naive MV4-11 cells (AID 1963823); also: nearly all actives have a fitted effect of over 40% in size
Details: MV4-11 AML viability, CellTiter-Glo luminescence, 72 h; series mostly up to 45 µM
Inconclusive results are not listed. Activity calls are given as the source filed them. Calls follow the shape of the dose curve; as a rule, active = well fitted cell-killing curve with a large enough effect; inconclusive = small, poorly fitted or top-dose-only effect, or effect the other way; inactive = no such curve, though single readings can be large or run the other way.
Returns: one label drawn from true (1) = active, false (0) = inactive

{"COMPOUND": "O=C1c2ccccc2C(=O)C1c1ccccc1", "LABEL": "false (0)"}
{"COMPOUND": "C=CC(C)(O)CO[C@@H]1O[C@H](CO)[C@@H](O)[C@H](O)[C@H]1O (stereo partly drawn)", "LABEL": "false (0)"}
{"COMPOUND": "COc1ccc(CC2C(=O)NC(C)C(=O)N(C)C3Cc4ccc(cc4)Oc4cc(ccc4OC4OC(CO)C(O)C(O)C4O)CC(C(=O)NC(C)C(=O)NC(C)C(=O)N2C)N(C)C3=O)cc1 (stereo not drawn)", "LABEL": "true (1)"}
{"COMPOUND": "CCCCNc1ncc(C(=O)NCc2ccc(-n3ccnc3)cc2)c(NC2CCC(O)CC2)n1 (stereo not drawn)", "LABEL": "true (1)"}
{"COMPOUND": "CN[C@@H]1C[C@H]2O[C@@](C)([C@@H]1OC)n1c3ccccc3c3c4c(c5c6ccccc6n2c5c31)C(=O)N[C@H]4O", "LABEL": "true (1)"}
{"COMPOUND": "N#CC1(c2ccc(NC(=O)c3cccnc3NCc3ccncc3)cc2)CCCC1", "LABEL": "true (1)"}

Input line: Status in this test for C/C=C/C=C/C=C/C(=O)O[C@@H]1[C@@H](OC)C2=C(C(=O)N(C(C)C(=O)O)C2)[C@@]2(C)CCCC(C)(C)[C@H]12 (stereo partly drawn) ?
Output line: false (0)

Input line: Status in this test for `NCCCCNCCCN` ?
Output line: true (1)

---

Assay: Viability qHTS for spleen associated tyrosine kinase inhibitor (SYKi) naive MV4-11 cells (AID 1963823); also: nearly all actives have a fitted effect of over 40% in size
Conditions: MV4-11 AML viability, CellTiter-Glo luminescence, 72 h; series mostly up to 45 µM
Inconclusive results are not listed. The source made the active and inactive calls. The call rests on the fitted dose curve; in most records, active means well fitted cell-killing curve with a large enough effect; inconclusive means small, poorly fitted or top-dose-only effect, or effect the other way; inactive means no such curve, though single readings can be large or run the other way.
Returns: one label drawn from class 1 = active, class 0 = inactive

Worked examples follow.
{"MOLECULE": "CCOc1ccc(-c2nc(-c3cccc4c3CCC4NCCO)no2)cc1OCC (stereo unspecified)", "LABEL": "class 1"}
{"MOLECULE": "COc1ccc(C(=O)c2ccccc2)c(O)c1", "LABEL": "class 0"}
{"MOLECULE": "C[C@@]1(O)[C@H](O)[C@@H](CO)O[C@H]1n1cnc2c(=O)[nH]c(N)nc21", "LABEL": "class 0"}
{"MOLECULE": "CN(C)C/C=C(/c1ccc(Br)cc1)c1cccnc1", "LABEL": "class 0"}
{"MOLECULE": "C[C@@H]1C(=O)O[C@H]2CC34[C@H]5C[C@@H](C(C)(C)C)C36[C@H](OC(=O)[C@@H]6O)O[C@@]4(C(=O)O5)[C@]21O (stereo partly specified)", "LABEL": "class 0"}

Input line: Status in this test for `C[C@]12CCC(=O)C=C1CC[C@@H]1[C@@H]2C(=O)C[C@@]2(C)[C@H]1CC[C@]2(O)C(=O)CO` ?
Output line: class 0

Input line: Status in this test for `Cn1sc(=O)n(Cc2ccccc2)c1=O` ?
Output line: class 1
